The listing below reports IC50 for molecules tested on Isoleucine--tRNA ligase (Escherichia coli K-12).
Sequence (P00956 whole entry): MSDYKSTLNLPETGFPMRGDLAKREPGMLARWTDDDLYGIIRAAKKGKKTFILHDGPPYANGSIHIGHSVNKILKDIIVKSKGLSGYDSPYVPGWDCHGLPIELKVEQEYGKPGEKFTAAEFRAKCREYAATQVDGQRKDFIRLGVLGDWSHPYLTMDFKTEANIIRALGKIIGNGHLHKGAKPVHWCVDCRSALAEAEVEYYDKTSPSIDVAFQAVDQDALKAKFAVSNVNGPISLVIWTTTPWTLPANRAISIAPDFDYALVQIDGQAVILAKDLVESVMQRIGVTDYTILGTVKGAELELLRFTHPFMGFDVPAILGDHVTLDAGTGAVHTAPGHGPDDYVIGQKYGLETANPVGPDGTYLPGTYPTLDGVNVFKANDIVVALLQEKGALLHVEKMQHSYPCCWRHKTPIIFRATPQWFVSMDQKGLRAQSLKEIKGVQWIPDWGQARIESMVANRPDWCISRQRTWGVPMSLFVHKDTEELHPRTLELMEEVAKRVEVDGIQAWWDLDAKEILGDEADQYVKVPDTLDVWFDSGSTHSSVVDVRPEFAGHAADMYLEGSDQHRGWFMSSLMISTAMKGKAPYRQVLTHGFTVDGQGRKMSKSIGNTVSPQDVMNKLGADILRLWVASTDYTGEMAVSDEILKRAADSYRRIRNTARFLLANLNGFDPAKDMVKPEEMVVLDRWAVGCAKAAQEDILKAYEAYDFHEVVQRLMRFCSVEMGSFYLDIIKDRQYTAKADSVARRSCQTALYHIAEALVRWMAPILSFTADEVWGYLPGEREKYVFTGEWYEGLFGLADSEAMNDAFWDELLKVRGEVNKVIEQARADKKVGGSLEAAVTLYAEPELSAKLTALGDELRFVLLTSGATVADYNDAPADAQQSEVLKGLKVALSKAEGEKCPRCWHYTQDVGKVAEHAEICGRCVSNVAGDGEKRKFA

Worked set:
| structure-smiles | result |
| --- | --- |
| CC[C@H](C)[C@H](N)C(=O)NS(=O)(=O)OC[C@H]1O[C@@H](n2cnc3c(N)ncnc32)[C@H](O)[C@@H]1O | 0.265 µM |
| CC[C@H](C)[C@H](N)C(=O)NS(=O)(=O)O[C@H]1O[C@@H](n2cnc3c(N)ncnc32)C[C@@H]1O | 280 µM |
| CC[C@H](C)[C@H](N)C(=O)NS(=O)(=O)OC[C@@H]1C[C@@H](O)[C@H](n2cnc3c(N)ncnc32)O1 | 35 µM |

Moving on to the next molecule.
Identify the reported IC50 for the following entry. CC[C@H](C)[C@H](N)C(=O)NS(=O)(=O)OC[C@@H]1CC[C@H](n2cnc3c(N)ncnc32)O1 6.4 µM

###

- experimental-target: Methionine--tRNA ligase (Escherichia coli K-12, UniProt P00959)
- Sequence (P00959 whole entry): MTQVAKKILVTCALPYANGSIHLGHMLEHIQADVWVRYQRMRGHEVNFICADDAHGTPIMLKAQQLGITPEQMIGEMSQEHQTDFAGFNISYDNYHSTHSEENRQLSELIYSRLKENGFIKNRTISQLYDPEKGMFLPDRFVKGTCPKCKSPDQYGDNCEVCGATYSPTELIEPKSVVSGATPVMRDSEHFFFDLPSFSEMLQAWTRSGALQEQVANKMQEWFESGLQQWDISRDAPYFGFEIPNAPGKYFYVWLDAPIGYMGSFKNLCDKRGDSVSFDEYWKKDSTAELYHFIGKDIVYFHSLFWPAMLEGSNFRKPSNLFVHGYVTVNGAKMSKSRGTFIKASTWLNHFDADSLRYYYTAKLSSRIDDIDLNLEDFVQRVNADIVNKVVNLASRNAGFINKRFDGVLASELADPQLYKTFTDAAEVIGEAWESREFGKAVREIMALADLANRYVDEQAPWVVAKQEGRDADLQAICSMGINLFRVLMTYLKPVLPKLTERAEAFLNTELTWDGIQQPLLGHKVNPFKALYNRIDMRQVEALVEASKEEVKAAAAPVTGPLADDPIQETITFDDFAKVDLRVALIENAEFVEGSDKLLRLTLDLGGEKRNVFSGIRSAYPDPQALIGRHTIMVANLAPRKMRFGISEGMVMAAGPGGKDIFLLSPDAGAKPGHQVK
quantity-measured: pIC50
A value of pIC50 is the negative decimal logarithm of a concentration given in moles per litre.

Identify the reported pIC50 for the following entry. CSCC[C@H](N)C(=O)NS(=O)(=O)O[C@@H]1CC[C@H](n2cnc3c(N)nnnc32)O1 6.42
